- Test system: U-251
- assay-notes: NCI tumour cell line growth inhibition, 48 h
Calls of active or inactive are those of the source. Rule as the data show it: active = GI50 up to about 1.1 µM and inactive = higher.
Items are presented alongside their recorded GI50.

Recorded GI50, per entry:
> print(dat)
                                   compound  quantity             reported
1  CC1OC(n2ccc3ccc([N+](=O)[O-])cc32)C(O)C(O)C1O (stereo not given)      GI50  > 100 µM (inactive)
2  CCOP(=O)(OCC)C(NC(=O)C(C(F)(F)F)C(F)(F)F)c1ccccc1 (stereo not given)      GI50  > 100 µM (inactive)

Qu. GI50 for COC1(OC)c2ccccc2C2(O)c3ccccc3C(=O)C12 (stereo not given) ?
Ans. 43 µM (inactive)

Qu. Please look up its GI50: COC(C/C=C\C=C\CC/C=C/CC(C)/C=C/C(=C\C(=O)O)CC(=O)O)/C(C)=C\C=C(/C)C(=O)O (stereo not given)
Ans. > 100 µM (inactive)

Qu. Fill in: GI50 of CC(NC(=O)C(=O)N/N=C1\C[C@@H](c2ccccc2)Nc2ccccc21)c1ccccc1 (stereo not given in full) is ___
Ans. > 100 µM (inactive)

----------
- Tested on: DLD-1
- assay-notes: NCI tumour cell line growth inhibition, 48 h
Activity calls are given as the source filed them. No stated cut-off is given here; in the data, active = GI50 up to about 1.1 µM and inactive = higher.
Can you answer with just one of these options? TRUE = active, FALSE = inactive

Recorded results for 8 compounds are shown here.
> print(dat)
                                   compound  system.name  category.label
1  CC(=O)Nc1ccc(-c2nnc(SCC(=O)Nc3ccccc3[N+](=O)[O-])o2)cc1        DLD-1           FALSE
2  COc1ccc(/C=C/C(=O)c2c(-c3ccccc3)nn(C)c(=O)c2N2CCCC2)cc1        DLD-1           FALSE
3  CCOC(=O)N[C@H]1CCc2cc(OC)c(OC)c(OC)c2-c2ccc(SC)c(=O)cc21        DLD-1            TRUE
4  CCC1CCCCN1CC(C(C)=O)C(c1ccccc1)c1c(O)c2ccccc2oc1=O (stereo not given)        DLD-1           FALSE
5  Cc1ccc(/N=N/c2c(C)nn(-c3ccccc3)c2-c2ccccc2)c(Br)c1        DLD-1           FALSE
6  CN(C)CC1(C)CC/C(=C\c2ccc3c(c2)OCO3)C1=O (stereo not given)        DLD-1           FALSE
7               CSC(=S)N/N=C/c1nccc2ccccc12        DLD-1            TRUE
8  O=C(Nc1ccccc1)c1ccc(Cl)c([N+](=O)[O-])c1        DLD-1           FALSE

Qu. Would you mind telling me which call this test gave "CCOC(=O)NC(=O)c1cn(CCN2CCN(C(=O)CCCCCCCCCCNc3ncnc4[nH]cnc34)CC2)c(=O)[nH]c1=O" ?
Ans. FALSE

Qu. Could you please tell me the result logged for "CC1(C)CCc2cc3c(-c4ccccc4)cc(=O)oc3cc2O1" in this assay?
Ans. FALSE

----------
- System: TK-10
- assay-notes: NCI tumour cell line growth inhibition, 48 h
Active and inactive are the calls of the source. Rule as the data show it: active = GI50 up to about 1.1 µM and inactive = higher.
Log the outcome using a class from active, inactive

> print(dat)
                                   compound  category.label
1  O=S(=O)(N/N=C/c1cccc(/C=N/NS(=O)(=O)c2ccccc2)c1)c1ccccc1        inactive
2  CC1C=CC(C)C2(O)C(=O)NC(O)C12 (stereo not given)        inactive
3  COC(=O)[C@H](Cc1ccccc1)NC(=O)N1CCN(C(=O)N[C@@H](Cc2ccccc2)C(=O)OC)CCN(C(=O)N[C@@H](Cc2ccccc2)C(=O)OC)CC1        inactive
4       O=C(Cn1c2c(c3ccccc31)CCCC2)N1CCCCC1        inactive

Next compound, please.
Qu. Answer briefly: the call reported for "CCOC(=O)N[C@H]1CCc2cc(OC)c(OC)c(OC)c2-c2ccc(SC)c(=O)cc21" in this assay.
Ans. active
